Hello, the source for this data is paper PMC8495968, in case you need it.

molecular target: MCL-1 (Homo sapiens, UniProt Q07820); test: fluorescence anisotropy direct titration
Sequence (Q07820 whole entry): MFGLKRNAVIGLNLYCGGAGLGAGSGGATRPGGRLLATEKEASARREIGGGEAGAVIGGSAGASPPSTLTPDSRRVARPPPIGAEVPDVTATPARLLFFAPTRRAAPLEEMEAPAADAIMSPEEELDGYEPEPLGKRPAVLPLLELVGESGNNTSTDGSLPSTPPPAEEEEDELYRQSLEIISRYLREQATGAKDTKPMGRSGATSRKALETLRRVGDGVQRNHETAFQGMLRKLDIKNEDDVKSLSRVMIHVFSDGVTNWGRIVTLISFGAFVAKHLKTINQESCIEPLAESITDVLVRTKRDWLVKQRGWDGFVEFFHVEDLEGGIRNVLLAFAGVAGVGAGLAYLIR
Ends that are not written are not given here. * marks the point of attachment. FITC = O=C1OC2(c3ccc(O)cc3Oc3cc(O)ccc32)c2ccc(NC(=S)*)cc21; Ahx = NCCCCCC(=O)O
quantity-kind: pKd
One number for each entry, as −log10 of the molar value.

Look up pKd for this binder: {FITC-Ahx}-TRSPLFIFMRR [FITC-Ahx-BIM75–85 75-85]
6.69
